These entries and their values trace back to ChEMBL document CHEMBL4130517.

Kindly state pIC50 for each of the entries shown.
molecular target: Gamma-secretase; assay: Modulation of gamma-secretase (unknown origin) expressed in HEK293 cells harboring SCP99-Lon mutation assessed as reduction in Abeta42 production after 5 hrs by sandwich immunoassay
Answers are plain numbers, as −log10 of the molar value.

These solved cases illustrate the format of a correct answer.
[[record]]
molecule = "COc1cc(-c2noc3c2CCCC3N[C@H](C)c2ccc(F)cc2)ccc1-n1cnc(C)c1 (stereo partly specified)"
measurement = 6.59

[[record]]
molecule = "COc1cc(-c2noc3c2CCCC3Oc2ccc(F)cc2)ccc1-n1cnc(C)c1 (stereo unspecified)"
measurement = 6.54

[[record]]
molecule = "COc1cc(-c2noc3c2CCCC3(O)Cc2cc(F)cc(F)c2)ccc1-n1cnc(C)c1 (stereo unspecified)"
measurement = 6.82

[[record]]
molecule = "COc1cc(-c2noc3c2CCCC3Nc2ccc(F)cc2)ccc1-n1cnc(C)c1 (stereo in doubt; 14a)"
measurement = 7.41

[[record]]
molecule = "COc1cc(-c2noc3c2CCCC3NCc2cc(F)cc(F)c2)ccc1-n1cnc(C)c1 (stereo in doubt; 14c)"
measurement = 7.54


Now look at this one.
Measured pIC50 of COc1cc(-c2noc3c2CCCC3N(C)Cc2ccc(F)cc2)ccc1-n1cnc(C)c1 (stereo unspecified) : 6.60

* * *

assay: Dissociation constant, pKa of the compound; format: physicochemical
Hi there, I'd appreciate the recorded pKa for every entry that follows.
Numbers only.

For orientation, consider the following solved cases.
[[record]]
compound = "COc1cc(-c2noc3c2CCCC3Nc2ccc(F)cc2)ccc1-n1cnc(C)c1 (stereo in doubt; 14a)"
measurement = 5.33

[[record]]
compound = "COc1cc(-c2noc3c2CCCC3NC2CCCCC2)ccc1-n1cnc(C)c1 (stereo not given)"
measurement = 8.42


Fill in pKa for each of the 3 compounds listed.
1. COc1cc(-c2noc3c2CCCC3NCc2ccc(F)cc2)ccc1-n1cnc(C)c1 (stereo not given)
2. CNC1CCCc2c(-c3ccc(-n4cnc(C)c4)c(OC)c3)noc21 (stereo not given)
3. COc1cc(-c2noc3c2CCCC3NCC(F)(F)F)ccc1-n1cnc(C)c1 (stereo not given)

**A:**
[7.08, 8.1, 5.42]

* * *

tested on: P-gp; experiment: Substrate activity at P-gp (unknown origin) assessed as permeability across basolateral to apical side; assay type: ADME; conditions: human, not told; read-out: permeability
Measurement kind: Papp B→A

[[record]]
compound = "COc1cc(-c2noc3c2CCCC3NCc2cc(F)cc(F)c2)ccc1-n1cnc(C)c1 (stereo in doubt; 14c)"
measurement = "46.2 ×10⁻⁶ cm/s"


Now, please, on to the next compound.
Short answer for COc1cc(-c2noc3c2CCCC3Nc2ccc(F)cc2)ccc1-n1cnc(C)c1 (stereo in doubt; 14a) : Papp B→A was 60 ×10⁻⁶ cm/s

* * *

Give efflux ratio for every item shown.
test system: P-gp; experiment: Substrate activity at P-gp (unknown origin) assessed as efflux ratio of permeability across basolateral to apical over apical to basolateral side; format: ADME; details: human, not told
Answers are plain numbers.

[[record]]
molecule = "COc1cc(-c2noc3c2CCCC3NCc2cc(F)cc(F)c2)ccc1-n1cnc(C)c1 (stereo in doubt; 14c)"
measurement_kind = "efflux ratio"
measurement = 6.8


Lab note: next molecule to report on.
// efflux ratio lookup, molecule = COc1cc(-c2noc3c2CCCC3Nc2ccc(F)cc2)ccc1-n1cnc(C)c1 (stereo in doubt; 14a) , result: 1.6

* * *

molecular target: Gamma-secretase (Homo sapiens) (UniProt Q96BI3+Q9NZ42+Q8WW43+P49768+Q92542+P49810); assay: Modulation of gamma-secretase (unknown origin) expressed in HEK293 cells harboring SCP99-Lon mutation assessed as ratio of total amyloid beta to amyloid beta 42 level after 5 hrs by sandwich immunoassay; type: cell-based
Outcome: condition met for Ratio of at least 100; condition not met for anything lower.

**Q:** State whether the measured Ratio reaches 100, counting equality as reaching it, for COc1cc(-c2noc3c2CCCC3NCC(F)(F)F)ccc1-n1cnc(C)c1 (configuration not stated)
**A:** condition not met

**Q:** Form field: Ratio at least 100? Entry: COc1cc(-c2noc3c2CCCC3NCc2cc(F)cc(F)c2)ccc1-n1cnc(C)c1 (stereo in doubt; 14c)
**A:** condition met

**Q:** # bool: Ratio of COc1cc(-c2noc3c2CCCC3Nc2ccc(F)cc2)ccc1-n1cnc(C)c1 (stereo in doubt; 14b) >= 100
**A:** condition not met

**Q:** Would you say COc1cc(-c2noc3c2CCCC3(O)c2cc(F)cc(F)c2)ccc1-n1cnc(C)c1 (configuration not stated) shows Ratio at minimum 100?
**A:** condition met

**Q:** Could you please find out whether COc1cc(-c2noc3c2CCCC3Nc2ccc(F)cc2)ccc1-n1cnc(C)c1 (stereo in doubt; 14a) has Ratio that meets 100 or exceeds it?
**A:** condition met

* * *

target: Gamma-secretase; experiment: Modulation of gamma-secretase (unknown origin) expressed in HEK293 cells harboring SCP99-Lon mutation assessed as reduction in Abeta42 production after 5 hrs by sandwich immunoassay
For each entry below, report its pIC50 value.
One number for each entry, as −log10 of the molar value.

[[record]]
compound = "COc1cc(-c2noc3c2CCCC3Nc2ccc(F)cc2)ccc1-n1cnc(C)c1 (stereo in doubt; 14b)"
target_entity = "Gamma-secretase"
measurement_kind = "pIC50"
measurement = 6.64

[[record]]
compound = "COc1cc(-c2noc3c2CCCC3NCC(F)(F)F)ccc1-n1cnc(C)c1 (stereo not given)"
target_entity = "Gamma-secretase"
measurement_kind = "pIC50"
measurement = 6.34

[[record]]
compound = "COc1cc(-c2noc3c2CCCC3Oc2cc(F)cc(F)c2)ccc1-n1cnc(C)c1 (stereo not given)"
target_entity = "Gamma-secretase"
measurement_kind = "pIC50"
measurement = 6.70

[[record]]
compound = "COc1cc(-c2noc3c2CCCC3OCc2cc(F)cc(F)c2)ccc1-n1cnc(C)c1 (stereo not given)"
target_entity = "Gamma-secretase"
measurement_kind = "pIC50"
measurement = 6.29

[[record]]
compound = "CNC1CCCc2c(-c3ccc(-n4cnc(C)c4)c(OC)c3)noc21 (stereo not given)"
target_entity = "Gamma-secretase"
measurement_kind = "pIC50"
measurement = 4.92

[[record]]
compound = "COc1cc(-c2noc3c2CCCC3NC2CCCCC2)ccc1-n1cnc(C)c1 (stereo not given)"
target_entity = "Gamma-secretase"
measurement_kind = "pIC50"
measurement = 6.51

[[record]]
compound = "COc1cc(-c2noc3c2CCCC3NCc2ccc(F)cc2)ccc1-n1cnc(C)c1 (stereo not given)"
target_entity = "Gamma-secretase"
measurement_kind = "pIC50"
measurement = 6.89

[[record]]
compound = "COc1cc(-c2noc3c2CCCC3c2cc(F)cc(F)c2)ccc1-n1cnc(C)c1 (stereo not given)"
target_entity = "Gamma-secretase"
measurement_kind = "pIC50"
measurement = 6.96

[[record]]
compound = "COc1cc(-c2noc3c2CCCC3(O)c2cc(F)cc(F)c2)ccc1-n1cnc(C)c1 (stereo not given)"
target_entity = "Gamma-secretase"
measurement_kind = "pIC50"
measurement = 6.72


Please find the next compound below.
The recorded pIC50 with Gamma-secretase for COc1cc(-c2noc3c2CCCC3NCc2cc(F)cc(F)c2)ccc1-n1cnc(C)c1 (stereo in doubt; 14d) was 6.19

* * *

I'd be grateful if you could share measured Papp A→B for these entries.
tested on: P-gp; assay: Substrate activity at P-gp (unknown origin) assessed as permeability across apical to basolateral side; type: ADME; settings: human, not told; read-out: permeability
Reply with the number, then its unit.

Parameters: items (list). Returns: Papp A→B for each item.
1. COc1cc(-c2noc3c2CCCC3Nc2ccc(F)cc2)ccc1-n1cnc(C)c1 (stereo in doubt; 14a)
2. COc1cc(-c2noc3c2CCCC3NCc2cc(F)cc(F)c2)ccc1-n1cnc(C)c1 (stereo in doubt; 14c)

**A:**
["37.6 ×10⁻⁶ cm/s", "6.8 ×10⁻⁶ cm/s"]

* * *

assay: Drug uptake in plasma of Sprague-Dawley rat at 30 mg/kg, po after 3 hrs by LC-MS/MS analysis; type: ADME, organism-based
Measurement kind: concentration at 3 h
Your answer should be a number followed by the unit of measure.

[[record]]
compound = "COc1cc(-c2noc3c2CCCC3NCc2cc(F)cc(F)c2)ccc1-n1cnc(C)c1 (stereo in doubt; 14c)"
measurement_kind = "concentration at 3 h"
measurement = "6.01 µM"


Now for another entry.
concentration at 3 h reported for this compound COc1cc(-c2noc3c2CCCC3Nc2ccc(F)cc2)ccc1-n1cnc(C)c1 (stereo in doubt; 14a) : 10.4 µM

* * *

target: Gamma-secretase (Homo sapiens) (UniProt Q96BI3+Q9NZ42+Q8WW43+P49768+Q92542+P49810); experiment: Modulation of gamma-secretase (unknown origin) expressed in HEK293 cells harboring SCP99-Lon mutation assessed as ratio of total amyloid beta to amyloid beta 42 level after 5 hrs by sandwich immunoassay; type: cell-based
Provide the recorded Ratio for the entries that follow.
Numbers only.

[[record]]
molecule = "COc1cc(-c2noc3c2CCCC3OCc2cc(F)cc(F)c2)ccc1-n1cnc(C)c1 (centres undefined)"
measurement_kind = "Ratio"
measurement = 39

[[record]]
molecule = "COc1cc(-c2noc3c2CCCC3c2cc(F)cc(F)c2)ccc1-n1cnc(C)c1 (centres undefined)"
measurement_kind = "Ratio"
measurement = 178

[[record]]
molecule = "COc1cc(-c2noc3c2CCCC3NCc2cc(F)cc(F)c2)ccc1-n1cnc(C)c1 (stereo in doubt; 14d)"
measurement_kind = "Ratio"
measurement = 28


For each of the molecules below, note its Ratio.
1. CNC1CCCc2c(-c3ccc(-n4cnc(C)c4)c(OC)c3)noc21 (centres undefined)
2. COc1cc(-c2noc3c2CCCC3N[C@H](C)c2ccc(F)cc2)ccc1-n1cnc(C)c1 (some centres undefined)

**A:**
1. 2
2. 77
